- protocol: Oral cannulated rat PK study (portal and jugular vein)
- Assay type: in vivo, Sprague Dawley rats
- condition-context: Sprague Dawley, portal vein blood; rat, oral, portal vein; read-out: portal AUClast
measured-property: AUC(0-t) (µg·h/mL)

• CC/C=C\C/C=C\C/C=C\C/C=C\C/C=C\C/C=C\CCC(=O)NCCSSC(C)(C)CNC(=O)c1cccnc1 = 0.679
• CC/C=C\C/C=C\C/C=C\C/C=C\C/C=C\CCCC(=O)NCCSSCCNC(=O)c1cccnc1 = 0.0125
